Numbers sourced from patent US20240109974A1.

EXPERIMENTAL SYSTEM: T1, human TNFR2 (Novoprotein, Cat #C830) (human, UniProt P20333 23-257, limits assumed)
T1 construct: construct not described; also called human TNFR2 protein
T1 sequence (looked up): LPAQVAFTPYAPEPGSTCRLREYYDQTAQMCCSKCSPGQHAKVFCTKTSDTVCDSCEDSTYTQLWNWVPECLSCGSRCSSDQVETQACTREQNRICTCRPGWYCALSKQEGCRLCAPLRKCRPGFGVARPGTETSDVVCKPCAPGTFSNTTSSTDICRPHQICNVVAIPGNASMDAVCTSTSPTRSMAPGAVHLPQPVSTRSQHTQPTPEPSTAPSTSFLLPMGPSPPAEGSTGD
ASSAY METHOD TEXT: competition ELISA, human TNFR2 coated, competitor human TNFα-Biotin
This section presents binders with their documented IC50 values.
Numeric only. Scale: µg/mL

Using the record for 224-Hu4 (antibody, V domains shown, Humanized form of #224; also called VH9 + VL6) VH: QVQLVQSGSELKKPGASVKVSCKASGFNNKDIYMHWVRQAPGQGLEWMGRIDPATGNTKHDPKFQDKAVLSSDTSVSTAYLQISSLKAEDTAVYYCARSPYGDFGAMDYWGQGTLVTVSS VL: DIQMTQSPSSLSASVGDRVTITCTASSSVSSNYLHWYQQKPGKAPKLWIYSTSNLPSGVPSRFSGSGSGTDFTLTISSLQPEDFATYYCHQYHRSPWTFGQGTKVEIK , report its IC50.
0.458

Dear colleague, I am looking for the recorded IC50 of the following binder: 224-Hu2 (antibody, V domains shown, Humanized form of #224; also called VH9 + VL7) VH: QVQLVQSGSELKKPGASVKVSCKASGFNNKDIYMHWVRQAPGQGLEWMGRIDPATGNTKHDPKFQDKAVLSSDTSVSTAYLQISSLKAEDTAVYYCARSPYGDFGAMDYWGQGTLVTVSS VL: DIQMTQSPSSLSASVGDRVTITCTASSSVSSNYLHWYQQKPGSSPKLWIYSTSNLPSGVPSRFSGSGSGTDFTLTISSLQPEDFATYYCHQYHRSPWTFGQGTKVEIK
0.44

Using the record for 001-Hu5 (antibody, V domains shown, Humanized form of #001; also called VH1 + VL4) VH: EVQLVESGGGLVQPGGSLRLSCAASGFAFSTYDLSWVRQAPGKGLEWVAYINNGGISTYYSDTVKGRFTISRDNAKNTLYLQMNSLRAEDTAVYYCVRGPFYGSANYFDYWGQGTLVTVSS VL: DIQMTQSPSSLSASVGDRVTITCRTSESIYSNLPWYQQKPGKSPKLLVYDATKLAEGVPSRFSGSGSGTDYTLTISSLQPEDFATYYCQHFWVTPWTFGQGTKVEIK , report its IC50.
0.656
